# Tested on: rodent lifetime carcinogenesis bioassay, tumor incidence TD50
# procedure.summary: carcinogenic potency in animals, long-term in vivo studies, CPDB compilation (AID 1745844)
# protocol.conditions: hamster; strain Syrian Golden; males; in drinking water; site: trachea; lesion: mixed-cell mucoepidermoid papilloma; dosed 104 weeks; study length 104 weeks
measured.metric: TD50

In plain terms, O=NN1CCOCC1 has a documented TD50 of 7.98 mg/kg/day

----------
# System: rodent lifetime carcinogenesis bioassay, tumor incidence TD50
# procedure.summary: carcinogenic potency in animals, long-term in vivo studies, CPDB compilation (AID 1745844)
# protocol.conditions: mouse; strain B6C3F1; males; by gavage; site: liver; lesion: hepatocellular adenoma + hepatocellular carcinoma + neoplastic nodule; dosed 78 weeks; study length 92 weeks
A collection of molecules and their measured TD50
Only the number, expressed in mg/kg/day, is required.

ClC(Cl)Cl = 56.2

API: the following record is the query input.
In plain terms, ClC(Cl)C(Cl)Cl has a documented TD50 of 41.6

----------
# Test system: rodent lifetime carcinogenesis bioassay, tumor incidence TD50
# procedure.summary: carcinogenic potency in animals, long-term in vivo studies, CPDB compilation (AID 1745844)
# protocol.conditions: rat; strain F344/DuCrj; males; in drinking water; site: palate, soft; lesion: squamous-cell carcinoma; dosed 50 weeks; study length 50 weeks
measured.metric: TD50
Remember to follow the number with its unit.

In plain terms, CCCCN(N=O)C(N)=O has a documented TD50 of 17 mg/kg/day

----------
# System: rodent lifetime carcinogenesis bioassay, tumor incidence TD50
# procedure.summary: carcinogenic potency in animals, long-term in vivo studies, CPDB compilation (AID 1745844)
# protocol.conditions: mouse; strain B6C3F1; males; inhaled; site: Harderian gland; lesion: carcinoma; dosed 26 weeks; study length 53 weeks
measured.metric: TD50 (mg/kg/day)
Only the number, expressed in mg/kg/day, is required.

In plain terms, C=CC(=C)C has a documented TD50 of 14700

----------
# Tested on: rodent lifetime carcinogenesis bioassay, tumor incidence TD50
# procedure.summary: carcinogenic potency in animals, long-term in vivo studies, CPDB compilation (AID 1745844)
# protocol.conditions: mouse; strain B6C3F1; males; inhaled; site: liver; lesion: hepatocellular adenoma + hepatocellular carcinoma + neoplastic nodule; dosed 82 weeks; study length 104 weeks
measured.metric: TD50 (mg/kg/day)
Only the number, expressed in mg/kg/day, is required.

In plain terms, C=CC=C has a documented TD50 of 23.9

----------
# Test system: rodent lifetime carcinogenesis bioassay, tumor incidence TD50
# procedure.summary: carcinogenic potency in animals, long-term in vivo studies, CPDB compilation (AID 1745844)
# protocol.conditions: rat; strain Fischer 344; females; in drinking water; site: lung; lesion: alveolar/bronchiolar adenoma + alveolar/bronchiolar carcinoma; dosed 98 weeks; study length 104 weeks
measured.metric: TD50

In plain terms, Cc1ccc(S(=O)(=O)Oc2ccc(N=Nc3ccc(-c4ccc(N=Nc5c(O)ccc6cc(S(=O)(=O)O)cc(S(=O)(=O)O)c56)c(C)c4)cc3C)cc2)cc1 has a documented TD50 of 23.6 mg/kg/day

----------
# System: rodent lifetime carcinogenesis bioassay, tumor incidence TD50
# procedure.summary: carcinogenic potency in animals, long-term in vivo studies, CPDB compilation (AID 1745844)
# protocol.conditions: rat; strain Long-Evans; males; in feed; site: any site (literature study); lesion: one or several types; types not named; dosed 52 weeks; study length 52 weeks
Active and inactive are the calls of the source. The rule behind the calls is not given here.
measured.metric: TD50

In plain terms, CC(Oc1c(Cl)cccc1Cl)C1=NCCN1 (stereo unspecified) has a documented TD50 of 2.3 mg/kg/day (inactive)

All figures here come from PubChem BioAssay AID1745844.
